System: MOLT-4 leukemia
ASSAY_COMMENT: NCI tumour cell line growth inhibition, 48 h
MEASURED_ATTRIBUTE: GI50

INSERT INTO measurements (smiles_record, reported_measurement) VALUES
  ('Oc1ccc(-c2nc(-c3ccc(F)cc3)c(-c3ccncc3)[nH]2)cc1', '7.97 µM'),
  ('COc1cc(-c2cn(-c3ccc(Cl)cc3)c(=O)n2-c2ccccc2)cc(OC)c1OC', '59.6 µM'),
  ('Cc1nc(N=C(N)N)nc2ccc3ccccc3c12', '1.37 µM'),
  ('O=C(O)Cc1ccccc1', '> 1000 µM'),
  ('CC[C@]12C=CCN3CC[C@]4(C(=C(C(=O)OC)C1)Nc1ccccc14)[C@@H]32', '3.16 µM'),
  ('O=C(/C=C/c1cccnc1)/C=C/c1cccnc1', '0.31 µM'),
  ('C[C@@H](Oc1cc(-n2cnc3ccc(OCC4CCN(C)CC4)cc32)sc1C(N)=O)c1ccccc1C(F)(F)F', '0.0916 µM'),
  ('CCN(CC)c1ccc(/C=C/C2=[N+](C)c3ccccc3C2(C)C)cc1', '0.557 µM');

FYI, the data here is from PubChem BioAssay (NCI).
